- System: Plasmodium berghei
- Assay procedure: Screen against P. berghei liver stage (PbLuc), transformed with Luciferase, at 2uM
- Type: functional, HepG2
- Particulars: tested at 2 uM
The whole screen tested about 68,000 compounds, of which about 2,700 (4%) showed an effect of 50% or more. The sample holds strong results, similar compounds and a random draw of the others, so the mix is not that of the screen.
API: label(entry) gives 1.0 if the entry's INHIBITION is strictly smaller than 30%; on equality or larger values it gives 0.0.

# Compound, System, Qualitative label
rows = [
    ("Cc1nc(N2C[C@H]3CNC[C@H]3C2)c2sccc2n1", "Plasmodium berghei", 0.0),
    ("CC(C)(C)N1CCN(C(=O)Nc2cc(C(F)(F)F)c[nH]c2=O)CC1", "Plasmodium berghei", 1.0),
    ("CC(C)n1c(=O)c2sccc2n(CC(=O)Nc2ccccc2)c1=O", "Plasmodium berghei", 1.0),
    ("CC(C(=O)NCc1ccc(N2CCNC(=O)C2)cc1)c1cccs1 (centres undefined)", "Plasmodium berghei", 1.0),
]

IN: Hi there! Is INHIBITION for CC1CN(C(=O)Nc2cc(C(F)(F)F)c[nH]c2=O)CCO1 (centres undefined) below 30%, do you know?
OUT: 1.0

IN: Hi there! Is INHIBITION for O=C1CO[C@@H]2CN(C3CCOCC3)C[C@H]2N1Cc1cccc(F)c1 below 30%, do you know?
OUT: 1.0

IN: Hi there! Is INHIBITION for Cc1cc(N2CCN(C3CCSCC3)CC2)n2nc(C)c(C)c2n1 below 30%, do you know?
OUT: 0.0

IN: Hi there! Is INHIBITION for C=C(C)CN1CCC(c2n[nH]c(C3CC3)n2)CC1 below 30%, do you know?
OUT: 0.0

Each recorded value in this set is attributed to ChEMBL document CHEMBL4513216.
